Data provenance: patent US5629007A

Target: Human Type I Steroid 5α-Reductase (Homo sapiens, UniProt P18405)
Construct: Scalp punch biopsies from graft recipient sites were obtained; from tissue; host or cells: human scalp punch biopsies (hair transplant graft recipient sites), homogenate, resuspended 100,000×g pellet
Sequence (P18405 1-259): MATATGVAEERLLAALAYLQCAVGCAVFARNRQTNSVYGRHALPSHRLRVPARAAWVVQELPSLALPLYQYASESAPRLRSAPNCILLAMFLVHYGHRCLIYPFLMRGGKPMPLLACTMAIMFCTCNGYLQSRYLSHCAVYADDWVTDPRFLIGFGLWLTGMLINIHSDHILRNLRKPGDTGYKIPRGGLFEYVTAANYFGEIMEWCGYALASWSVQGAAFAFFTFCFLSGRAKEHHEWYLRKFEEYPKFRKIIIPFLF
Assay: Human 5α-Reductase Homogenate Assay (Type I, human scalp): conversion of [3H]-testosterone to 5α-reduced metabolites
Assay type: biochemical
Settings: 0.3 μM test compound, compared to control reaction mixtures; 50 nM [3H]-testosterone, pH 7.5, 25°, 180 min
REPORTED METRIC: percent inhibition of Type I 5AR

[[record]]
compound = "CN1C(=O)CC[C@]2(C)c3ccc(Sc4nc5c(ccc6ccccc65)s4)cc3CC[C@@H]12 [Example 163]"
recorded_result = "80%"

[[record]]
compound = "C[C@]12CCC(=O)N[C@@H]1CCc1cc(-c3cnc4ccccc4c3)ccc12 [Example 196]"
recorded_result = "11%"

[[record]]
compound = "CN1C(=O)CC[C@]2(C)c3ccc(C=Cc4ccccc4)cc3CC[C@@H]12 [Example 285]"
recorded_result = "93%"


Please examine the following record next.
Lookup: Item CN1C(=O)CC[C@]2(C)c3ccc(-c4ccc(-c5ccc(NC(=O)C(C)(C)C)s5)cc4)cc3CC[C@@H]12 [Example 222] has what recorded percent inhibition of Type I 5AR?
Found: 86%
